# TARGET ENTITY: AR protein in VCaP cells (Homo sapiens)
# Construct: endogenous in cells; host or cells: VCaP cells
# PROTOCOL TEXT: VCAP AR Degradation Assay (AR ELISA, 24 h)
# Assay type: cell-based
# PARTICULARS: concentration of compound when AR level = 50% of DMSO control, read-out: DC50
REPORTED ENDPOINT: DC50

Some entries whose results are on file:
| COMPOUND | REPORTED ENDPOINT | REPORTED |
| --- | --- | --- |
| CCc1cc(N2C(=S)N(c3cnc(C#N)c(C(F)(F)F)c3)C(=O)C23CCC3)ccc1OCCC1CCN([C@@H](C)C(=O)Nc2cc(NC3CCC(=O)NC3=O)ccc2F)CC1 (some centres unmarked) | DC50 | 0.1 to 0.5 µM |
| CCc1cc(N2C(=S)N(c3cnc(C#N)c(C(F)(F)F)c3)C(=O)C2(C)C)ccc1OCCC1CCN(CC(=O)Nc2cc(Cl)cc(NC3CCC(=O)NC3=O)c2)CC1 (centres unmarked) | DC50 | < 0.1 µM |
| CCc1cc(N2C(=S)N(c3ccc(C#N)c(C(F)(F)F)c3)C(=O)C23CCC3)ccc1OCCC1CCN(CC(=O)Nc2cc(Cl)cc(NC3CCC(=O)NC3=O)c2)CC1 (centres unmarked) | DC50 | 0.1 to 0.5 µM |
| CCc1cc(N2C(=S)N(c3cnc(C#N)c(C(F)(F)F)c3)C(=O)C23CCC3)ccc1OCCC1CCN([C@H](C)C(=O)Nc2cc(NC3CCC(=O)NC3=O)ccc2F)CC1 (some centres unmarked) | DC50 | 0.1 to 0.5 µM |

[in] Find the recorded DC50 belonging to CC1(C)C(=O)N(c2cnc(C#N)c(C(F)(F)F)c2)C(=S)N1c1ccc(OCCC2CCN(CC(=O)Nc3cccc(NC4CCC(=O)NC4=O)c3)CC2)c(Cl)c1 (centres unmarked) and report it.
[out] < 0.1 µM

----------
Reported DC50 values are given for each entry in this list.
# TARGET ENTITY: AR protein in VCaP cells (Homo sapiens, UniProt P10275)
# Construct: endogenous in cells; host or cells: VCaP cells
# PROTOCOL TEXT: VCAP AR Degradation Assay (AR ELISA, 24 h)
# Format: cell-based
# PARTICULARS: concentration of compound when AR level = 50% of DMSO control, read-out: DC50

Some entries whose results are on file:
| MOLECULE | TARGET ENTITY | DC50 |
| --- | --- | --- |
| CCc1cc(N2C(=S)N(c3cnc(C#N)c(C(F)(F)F)c3)C(=O)C2(C)C)ccc1OCCC1CCN([C@@H](C)C(=O)Nc2cccc(N[C@@H]3CCC(=O)NC3=O)c2)CC1 | AR protein in VCaP cells (Homo sapiens, UniProt P10275) | < 0.1 µM |
| CCc1cc(N2C(=S)N(c3cnc(C#N)c(C(F)(F)F)c3)C(=O)C2(C)C)ccc1OCCC1CCN([C@H](C)C(=O)Nc2cccc(N[C@H]3CCC(=O)NC3=O)c2)CC1 | AR protein in VCaP cells (Homo sapiens, UniProt P10275) | < 0.1 µM |
| CCc1cc(N2C(=S)N(c3ccc(C#N)c(C(F)(F)F)c3)C(=O)C2(C)C)ccc1OCC[C@H]1CCN(CC(=O)Nc2cccc(NC3CCC(=O)NC3=O)c2)[C@H](C)C1 (some centres unmarked) | AR protein in VCaP cells (Homo sapiens, UniProt P10275) | < 0.1 µM |
| CCc1cc(N2C(=S)N(c3cnc(C#N)c(C(F)(F)F)c3)C(=O)C2(C)C)ccc1OCCC1CCN([C@H](C)C(=O)Nc2cccc(N[C@@H]3CCC(=O)NC3=O)c2)CC1 | AR protein in VCaP cells (Homo sapiens, UniProt P10275) | < 0.1 µM |
| CC1(C)C(=O)N(c2cnc(C#N)c(C(F)(F)F)c2)C(=S)N1c1ccc(OCC2CCN(CC(=O)Nc3cccc(NC4CCC(=O)NC4=O)c3)CC2)c(Cl)c1 (centres unmarked) | AR protein in VCaP cells (Homo sapiens, UniProt P10275) | 0.5 to 1 µM |
| CCc1cc(N2C(=S)N(c3cnc(C#N)c(C(F)(F)F)c3)C(=O)C2(C)C)ccc1OCCC1CCN(CC(=O)Nc2cc(NC3CCC(=O)NC3=O)ccc2F)CC1 (centres unmarked) | AR protein in VCaP cells (Homo sapiens, UniProt P10275) | < 0.1 µM |
| CCc1cc(N2C(=S)N(c3cnc(C#N)c(C(F)(F)F)c3)C(=O)C23CCC3)ccc1OCCC1CCN([C@@H](C)C(=O)Nc2cc(Cl)cc(NC3CCC(=O)NC3=O)c2)CC1 (some centres unmarked) | AR protein in VCaP cells (Homo sapiens, UniProt P10275) | 0.1 to 0.5 µM |
| CC1(C)C(=O)N(c2ccc(C#N)c(C(F)(F)F)c2)C(=S)N1c1ccc(OCC2CCN(CC(=O)Nc3cc(Cl)cc(NC4CCC(=O)NC4=O)c3)CC2)c(Cl)c1 (centres unmarked) | AR protein in VCaP cells (Homo sapiens, UniProt P10275) | 0.5 to 1 µM |
| CC1(C)C(=O)N(c2ccc(C#N)c(C(F)(F)F)c2)C(=S)N1c1ccc(OCC2CCN(CC(=O)Nc3cccc(NC4CCC(=O)NC4=O)c3)CC2)c(F)c1 (centres unmarked) | AR protein in VCaP cells (Homo sapiens, UniProt P10275) | 0.1 to 0.5 µM |
| CC(F)(F)c1cc(N2C(=S)N(c3ccc(C#N)c(C(F)(F)F)c3)C(=O)C2(C)C)ccc1OCCC1CCN(CC(=O)Nc2cc(Cl)cc(NC3CCC(=O)NC3=O)c2)CC1 (centres unmarked) | AR protein in VCaP cells (Homo sapiens, UniProt P10275) | 0.1 to 0.5 µM |

# context switch: different molecule, same DC50
[in] Find the recorded DC50 belonging to CCc1cc(N2C(=S)N(c3cnc(C#N)c(C(F)(F)F)c3)C(=O)C2(C)C)ccc1OC1CCN(CC(=O)Nc2cc(NC3CCC(=O)NC3=O)ccc2F)CC1 (centres unmarked) and report it.
[out] 0.1 to 0.5 µM

----------
# TARGET ENTITY: AR protein in VCaP cells (Homo sapiens)
# Construct: endogenous in cells; host or cells: VCaP cells
# Sequence (P10275 1-920): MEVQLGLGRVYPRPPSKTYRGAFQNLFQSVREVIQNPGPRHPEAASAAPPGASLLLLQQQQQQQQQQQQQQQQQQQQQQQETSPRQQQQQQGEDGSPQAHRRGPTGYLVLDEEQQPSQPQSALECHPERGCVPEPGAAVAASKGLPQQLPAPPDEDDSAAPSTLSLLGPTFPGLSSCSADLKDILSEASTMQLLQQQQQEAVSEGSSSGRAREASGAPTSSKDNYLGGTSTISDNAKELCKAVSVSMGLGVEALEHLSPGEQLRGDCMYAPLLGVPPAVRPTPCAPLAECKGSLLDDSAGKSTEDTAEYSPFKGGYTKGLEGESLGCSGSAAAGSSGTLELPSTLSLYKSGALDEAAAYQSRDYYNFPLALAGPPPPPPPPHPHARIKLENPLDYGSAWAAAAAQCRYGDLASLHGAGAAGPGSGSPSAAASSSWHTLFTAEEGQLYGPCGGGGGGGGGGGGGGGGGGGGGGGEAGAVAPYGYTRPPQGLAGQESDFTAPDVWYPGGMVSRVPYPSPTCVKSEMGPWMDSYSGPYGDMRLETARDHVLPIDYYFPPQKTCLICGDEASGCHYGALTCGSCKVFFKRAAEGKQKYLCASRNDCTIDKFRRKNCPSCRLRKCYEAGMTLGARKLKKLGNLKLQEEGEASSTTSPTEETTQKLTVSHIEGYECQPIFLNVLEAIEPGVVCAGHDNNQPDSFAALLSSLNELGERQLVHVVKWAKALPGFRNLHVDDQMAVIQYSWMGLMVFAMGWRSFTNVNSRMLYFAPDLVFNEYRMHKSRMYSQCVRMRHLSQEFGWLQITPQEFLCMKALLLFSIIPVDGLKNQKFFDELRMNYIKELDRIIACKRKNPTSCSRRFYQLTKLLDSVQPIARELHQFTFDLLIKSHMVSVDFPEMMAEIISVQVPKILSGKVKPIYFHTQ
# PROTOCOL TEXT: VCAP AR Degradation Assay (AR ELISA, 24 h)
# Format: cell-based
# PARTICULARS: concentration of compound when AR level = 50% of DMSO control, read-out: DC50
REPORTED ENDPOINT: DC50

Some entries whose results are on file:
| COMPOUND | DC50 |
| --- | --- |
| CCc1cc(N2C(=S)N(c3ccc(C#N)c(C(F)(F)F)c3)C(=O)C2(C)C)ccc1OCCC1CCN([C@@H](C)C(=O)Nc2cccc(NC3CCC(=O)NC3=O)c2)CC1 (stereo partly drawn) | < 100 nM |
| CC1(C)C(=O)N(c2ccc(C#N)c(C(F)(F)F)c2)C(=S)N1c1ccc(OCCC2CCN(CC(=O)Nc3cccc(NC4CCC(=O)NC4=O)c3)CC2)c(F)c1 (stereo not drawn) | 100 to 500 nM |
| CCc1cc(N2C(=S)N(c3ccc(C#N)c(C(F)(F)F)c3)C(=O)C23CCC3)ccc1OCCC1CCN(CC(=O)Nc2cc(NC3CCC(=O)NC3=O)ccc2F)CC1 (stereo not drawn) | 100 to 500 nM |

[in] Find the recorded DC50 belonging to CC1(C)C(=O)N(c2cnc(C#N)c(C(F)(F)F)c2)C(=S)N1c1ccc(OCCC2CCN(CC(=O)Nc3cccc(NC4CCC(=O)NC4=O)c3)CC2)c(CCF)c1 (stereo not drawn) and report it.
[out] < 100 nM

[in] Find the recorded DC50 belonging to CCc1cc(N2C(=S)N(c3ccc(C#N)c(C(F)(F)F)c3)C(=O)C2(C)C)ccc1OCCC1CCN(CC(=O)Nc2cc(C#N)cc(NC3CCC(=O)NC3=O)c2)CC1 (stereo not drawn) and report it.
[out] 100 to 500 nM

[in] Find the recorded DC50 belonging to CCc1cc(N2C(=S)N(c3ccc(C#N)c(C(F)(F)F)c3)C(=O)C2(C)C)ccc1OCCC1CCN([C@H](C)C(=O)Nc2cccc(NC3CCC(=O)NC3=O)c2)CC1 (stereo partly drawn) and report it.
[out] 100 to 500 nM
